Values compiled from patent US6001988.

experimentalTarget: T1, L-selectin (LS-Rg) (Homo sapiens, UniProt P14151 P14151:39-332)
T1 chain: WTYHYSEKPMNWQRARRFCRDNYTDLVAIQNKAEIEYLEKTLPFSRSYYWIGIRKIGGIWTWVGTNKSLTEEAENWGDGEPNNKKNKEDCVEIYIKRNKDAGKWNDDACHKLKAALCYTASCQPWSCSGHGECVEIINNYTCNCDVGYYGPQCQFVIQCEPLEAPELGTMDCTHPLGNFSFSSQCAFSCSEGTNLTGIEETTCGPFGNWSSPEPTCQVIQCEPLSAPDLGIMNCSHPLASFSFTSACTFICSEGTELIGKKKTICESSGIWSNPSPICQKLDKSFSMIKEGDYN
assayExplanation: filter; 4 C, HSMC; 18 nM at room temp
cond: tags: human IgG2 Fc fusion (provided by A. Varki); label: 32P
quantityName: Kd
Write the figure, then the unit, nothing else.

input: # input binder: F13.51 (ssRNA, 2'-NH2 all C and U) RNA: GGGAGGACGAUGCGGAUGUAAAUCUAGGCAGAAACGUAGGGCAUCCACCGCAACGACAGACGACUCGCCCGA ; wanted: its Kd
output: 8.8 nM
